System: Z-138 cells
TEST_NAME: Z-138 Methylation Assay (In Cell Western for symmetric di-methyl arginine and DNA content)
Format: cell-based
MEASUREMENT_PARAMETERS: Homo sapiens, Table D-2, read-out: ICW EC50
pEC50: −log10 of the molar value.
READOUT_LABEL: pEC50

>>> measurement("CN(C)c1ccc(-c2cccc(OCC(O)CN3CCc4ccccc4C3)c2)cc1 (stereo not drawn)")
"5.00 to 6.00"
>>> measurement("O=c1[nH]c2ccc(-c3cccc(OCC(O)CN4CCc5ccccc5C4)c3)cc2[nH]1 (stereo not drawn)")
"6.00 to 7.00"
>>> measurement("CC(=O)c1ccc(-c2cccc(OCC(O)CN3CCc4ccccc4C3)c2)cc1 (stereo not drawn)")
"5.00 to 6.00"
>>> measurement("CC(=O)N(CC(O)CN1CCc2ccccc2C1)c1cccc(-c2ccc3ncn(C)c3c2)c1 (stereo not drawn)")
"6.00 to 7.00"
>>> measurement("CN1CCN(c2ccc(-c3cccc(OCC(O)CN4CCc5ccccc5C4)c3)cn2)CC1 (stereo not drawn)")
"5.00 to 6.00"

Kindly consider the entry below.
In: Look at this molecule and give its reported pEC50. O=C(Nc1cccc(OCC(O)CN2CCc3ccccc3C2)c1)c1cnccn1 (stereo not drawn)
Out: 5.00 to 6.00

###

Reported pIC50 values follow for various molecules
STUDY_TARGET: PRMT5/MEP50 (Homo sapiens)
Construct: Expressed full-length human Flag-PRMT5/6His-MeP50 protein complex was purified; made in house; host or cells: Spodoptera frugiperda (SF9) insect cells, baculovirus (pDEST8)
Sequence (O14744 with tags, fused parts or gaps): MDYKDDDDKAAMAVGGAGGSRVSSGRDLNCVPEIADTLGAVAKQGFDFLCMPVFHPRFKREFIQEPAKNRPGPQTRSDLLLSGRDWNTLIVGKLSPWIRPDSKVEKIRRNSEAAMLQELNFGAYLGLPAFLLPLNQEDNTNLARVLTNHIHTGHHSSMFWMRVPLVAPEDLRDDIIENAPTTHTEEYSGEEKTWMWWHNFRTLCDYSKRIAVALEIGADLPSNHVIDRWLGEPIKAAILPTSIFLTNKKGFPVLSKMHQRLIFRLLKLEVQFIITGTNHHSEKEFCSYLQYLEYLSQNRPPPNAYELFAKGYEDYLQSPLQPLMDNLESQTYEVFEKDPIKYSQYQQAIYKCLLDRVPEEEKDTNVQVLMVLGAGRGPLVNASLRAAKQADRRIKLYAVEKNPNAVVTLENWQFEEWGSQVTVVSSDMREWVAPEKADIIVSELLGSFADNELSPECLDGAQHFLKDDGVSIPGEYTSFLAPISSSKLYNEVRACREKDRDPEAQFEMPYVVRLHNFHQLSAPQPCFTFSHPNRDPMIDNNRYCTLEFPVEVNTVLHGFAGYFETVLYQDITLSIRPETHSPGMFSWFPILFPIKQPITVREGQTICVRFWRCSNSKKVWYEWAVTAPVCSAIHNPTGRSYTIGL
Sequence (Q9BQA1 with tags, fused parts or gaps partner limits assumed): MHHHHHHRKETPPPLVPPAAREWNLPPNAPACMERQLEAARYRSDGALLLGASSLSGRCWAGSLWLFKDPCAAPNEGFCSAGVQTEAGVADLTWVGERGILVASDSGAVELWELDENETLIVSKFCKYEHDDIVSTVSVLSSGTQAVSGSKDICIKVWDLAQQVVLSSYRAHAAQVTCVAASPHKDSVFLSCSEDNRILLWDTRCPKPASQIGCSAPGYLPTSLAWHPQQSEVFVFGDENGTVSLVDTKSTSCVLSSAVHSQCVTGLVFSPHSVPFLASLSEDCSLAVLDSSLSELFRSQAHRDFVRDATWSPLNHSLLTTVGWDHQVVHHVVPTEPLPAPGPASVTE
TEST_NAME: PRMT5 Biochemical Assay (PRMT5/MEP50 enzyme assay on peptide substrate, 3H-SAM Flashplate)
MEASUREMENT_PARAMETERS: Table D-2; read-out: Biochemical IC50
pIC50: −log10 of the molar value.

Some molecules with known pIC50 results, for comparison:
>>> measurement("OC(COc1ccc(Cc2ccccc2)cc1)CN1CCc2ccccc2C1 (stereo not drawn)")
"6.00 to 7.00"
>>> measurement("CN(CC(O)CN1CCc2ccccc2C1)c1cccc(CNC2CCCC2)c1 (stereo not drawn)")
"6.00 to 7.00"
>>> measurement("OC(COc1cccc(N2CCc3[nH]nc(-c4ccccc4)c3C2)c1)CN1CCc2ccccc2C1 (stereo not drawn)")
"5.00 to 6.00"
>>> measurement("CN(CC(O)CN1CCc2ccccc2C1)c1cccc(C(=O)NC2CCOCC2)c1 (stereo not drawn)")
"4.40 to 5.00"
>>> measurement("OC(COc1ccc2c(c1)OCO2)CN1CCc2ccccc2C1 (stereo not drawn)")
"5.00 to 6.00"

Kindly consider the entry below.
In: If you can, please state the reported pIC50 value of Cn1ncc2ccc(-c3ccnc(NCC(O)CN4CCc5ccccc5C4)c3)cc21 (stereo not drawn) .
Out: > 7.00

###

STUDY_TARGET: PRMT5/MEP50 (Homo sapiens)
Construct: Expressed full-length human Flag-PRMT5/6His-MeP50 protein complex was purified; made in house; host or cells: Spodoptera frugiperda (SF9) insect cells, baculovirus (pDEST8)
TEST_NAME: PRMT5 Biochemical Assay (PRMT5/MEP50 enzyme assay on peptide substrate, 3H-SAM Flashplate)
MEASUREMENT_PARAMETERS: Table A-2; PRMT5/MEP50 4 nM, 3H-SAM 75 nM, peptide 40 nM; read-out: Biochemical IC50
pIC50: −log10 of the molar value.
pIC50 reference

>>> measurement("Cc1cn(C)c2cccc(OCC(=O)NCC(O)CN3CCc4ccccc4C3)c12 (stereo not drawn)")
"> 7.00"

In: // lookup pIC50 | system=PRMT5/MEP50 (Homo sapiens) | key= CC(=O)N1CCc2c(cccc2OCC(=O)NCC(O)CN2CCc3ccccc3C2)C1 (stereo not drawn)
Out: > 7.00

In: For PRMT5/MEP50 (Homo sapiens), provide pIC50 of CS(=O)(=O)Nc1cccnc1OCC(=O)NCC(O)CN1CCc2ccccc2C1 (stereo not drawn) please.
Out: 5.00 to 6.00

In: // fetch PRMT5/MEP50 (Homo sapiens) pIC50 for CN(CC(O)CN1CCc2ccccc2C1)C(=O)CCc1ccccc1 (stereo not drawn)
Out: 5.00 to 6.00

In: Find the measured pIC50: item O=C(COc1cccc(F)c1)NCC(O)CN1CCc2ccccc2C1 (stereo not drawn) , target or system PRMT5/MEP50 (Homo sapiens).
Out: 6.00 to 7.00

In: Lab note: need pIC50 for O=C(COc1cccc2c1CCCN2Cc1ccccc1)NCC(O)CN1CCc2ccccc2C1 (stereo not drawn) on PRMT5/MEP50 (Homo sapiens), anyone have it?
Out: > 7.00
